- measurementProtocol: in vitro
- protocolConditions: mouse, cryopreserved hepatocytes
measurementLabel: half-life at 3 h, 1 µM (h)
One number for each entry, in h.

GET /value?item= C#Cc1nn(-c2cc(Cl)c(Oc3cc(C(C)C)c(=O)[nH]n3)c(Cl)c2)c(=O)[nH]c1=O &field=half-life at 3 h, 1 µM returns 1.18

---

- measurementProtocol: Apparent permeability of the compound from apical to basolateral side in human Caco-2 cells incubated for 1 hr
- protocolConditions: Caco-2
measurementLabel: Papp A→B at 1 h (×10⁻⁶ cm/s)
One number for each entry, in ×10⁻⁶ cm/s.

Notebook: C#Cc1nn(-c2cc(Cl)c(Oc3cc(C(C)C)c(=O)[nH]n3)c(Cl)c2)c(=O)[nH]c1=O , Papp A→B at 1 h read as 0.3
